Documented MIC across a set of compounds
- Tested on: Pseudomonas aeruginosa
- ASSAY SUMMARY: Antibacterial activity against Pseudomonas aeruginosa ATCC 15442 after 24 hrs by microdilution serial twofold assay
- Assay type: functional
- RUN CONDITIONS: ATCC 15442, 24 h
Square brackets hold non-standard residues; d marks the D form. Peptide text beside a SMILES is read from it. 1Nal = N[C@@H](Cc1cccc2ccccc12)C(=O)O; 2Nal = N[C@@H](Cc1ccc2ccccc2c1)C(=O)O
Answer format: numeric, µM implied, no suffix.

# example entries with known answers
compound="CSCC[C@H](NC(=O)[C@@H](NC(=O)CNC(=O)[C@H](CC(C)C)NC(=O)[C@H](CCCCN)NC(=O)[C@H](CCCCN)NC(=O)[C@H](CC(C)C)NC(=O)[C@H](CCSC)NC(=O)[C@@H](NC(=O)[C@H](CCCCN)NC(=O)[C@H](Cc1cccc2ccccc12)NC(=O)[C@H](CC(C)C)NC(=O)[C@H](C)NC(=O)[C@@H](N)CCCCN)[C@@H](C)O)[C@@H](C)O)C(=O)N[C@@H](C)C(=O)N[C@@H](CC(C)C)C(N)=O (H-KAL[1Nal]KTMLKKLGTMAL-NH2)" target_or_system="Pseudomonas aeruginosa" attribute_measured=MIC value_measured=2.6
compound="CSCC[C@H](NC(=O)[C@@H](NC(=O)CNC(=O)[C@H](CC(C)C)NC(=O)[C@H](CCCCN)NC(=O)[C@H](CCCCN)NC(=O)[C@H](CC(C)C)NC(=O)[C@H](CCSC)NC(=O)[C@@H](NC(=O)[C@H](CCCCN)NC(=O)[C@H](Cc1cccc2ccccc12)NC(=O)[C@H](CC(C)C)NC(=O)[C@H](C)N)[C@@H](C)O)[C@@H](C)O)C(=O)N[C@@H](C)C(=O)N[C@@H](CC(C)C)C(N)=O (H-AL[1Nal]KTMLKKLGTMAL-NH2)" target_or_system="Pseudomonas aeruginosa" attribute_measured=MIC value_measured=5.6

# input for lookup
Which measured MIC value corresponds to CSCC[C@H](NC(=O)[C@@H](NC(=O)CNC(=O)[C@H](CC(C)C)NC(=O)[C@H](CCCCN)NC(=O)[C@H](CCCCN)NC(=O)[C@H](CC(C)C)NC(=O)[C@H](CCSC)NC(=O)[C@@H](NC(=O)[C@H](CCCCN)NC(=O)[C@H](Cc1ccc2ccccc2c1)NC(=O)[C@H](CC(C)C)NC(=O)[C@H](C)N)[C@@H](C)O)[C@@H](C)O)C(=O)N[C@@H](C)C(=O)N[C@@H](CC(C)C)C(N)=O (H-AL[2Nal]KTMLKKLGTMAL-NH2) ?
5.6
